Test system: BT-549 breast
PROTOCOL DESCRIPTION: NCI-60 one-dose screen, 48 h (100 = growth as untreated, 0 = no growth, -100 = all killed)
MEASUREMENT CONDITIONS: 10 µM unless noted
About 83,000 compounds went through this panel and 20% of them were active in at least one assay; those are over-represented in the sample as a whole.
Field 'label' (enum: Met / Not met). Set to Met when growth is strictly under 70%; else Not met.

Example entries begin here.
# COMPOUND, ASSIGNED CLASS
records = [
    ("NC(=Nc1ccccc1)SCCCCSC(N)=Nc1ccccc1", "Not met"),
    ("CCC(C)CC(CC)NCCN1CCN(C(CC)CC(C)CC)C1=S (stereo unspecified)", "Not met"),
    ("O=C1NCN(c2ccccc2)C12CCN(CCCC(c1ccc(F)cc1)c1ccc(F)cc1)CC2", "Met"),
    ("Cc1ccc(C(=O)Nc2ccc(Cl)cc2C(=O)NCc2ccccc2)cc1", "Not met"),
    ("Clc1ccccc1[C@@H]1C[C@@H]2Cc3cc(Br)c4ccccc4c3N1O2", "Met"),
]

# ---- query compound ----
Is 70% strictly greater than the compound's reported growth? compound: COc1ccc(-c2nn(-c3cccc(Cl)c3)cc2C2CC(c3ccccc3)=NN2C(C)=O)cc1 (stereo unspecified)
Not met
